# ASSAYED_SYSTEM: T1, HIV-1YU2 gp120 (HIV-1 strain YU-2, UniProt P35961 32-498, limits assumed)
# T1 construct: domain: gp120
# PROCEDURE_SUMMARY: SPR direct binding; YU-2 gp120 immobilized (~3500 RU), peptide as analyte
Where no end group is shown, it is not given here. [ ]: non-standard residue; d: D form.
Lab note: compare koff against 0.003 s⁻¹. Equal or greater, write MET. Smaller, write NOT MET.

• ENI[Azp‑triazole‑ferrocene]WS (also called ENIPWS) [UM33] = NOT MET
• RNNI[Azp‑triazole‑ferrocene]WS (also called RNNIPWS) [UM22] = MET
• KNNI[Azp‑triazole‑ferrocene]WS (also called KNNIPWS) [UM27] = MET
• FNNI[Azp‑triazole‑ferrocene]WS-NH2 (Rink amide resin; also called FNNIPWS) [UM28] = MET
• RNI[Azp‑triazole‑ferrocene]WS (also called RNIPWS) [UM32] = MET

Turning now to a further record.
*Q* Item ENNI[Azp‑triazole‑ferrocene]WS-NH2 (Rink amide resin; also called ENNIPWS) [UM23] with koff of 0.003 s⁻¹ or above?
*A* MET
